assay summary: Pharmacokinetics of methotrexate in plasma after subcutaneous injection with autoinjector or needle/syringe
condition context: female, Gottingen, minipig, plasma, sc, 12.5 mg, AUC(0-τ), Syringe; 12.5 mg SC; animals S5196028/S5195684/S5195757
measured quantity: AUC (ng·h/mL)
Just the number in ng·h/mL, nothing appended.

Given CN(Cc1cnc2nc(N)nc(N)c2n1)c1ccc(C(=O)N[C@@H](CCC(=O)O)C(=O)O)cc1 [Methotrexate] , state its recorded AUC. 1830

Reference for the values: patent US10555954B2
